TARGET OR TEST SYSTEM: DPP-IV (dipeptidyl peptidase-IV) (Homo sapiens, UniProt P27487)
Construct: gene DPP4; commercial recombinant human DPP-IV
Sequence (P27487 39-766): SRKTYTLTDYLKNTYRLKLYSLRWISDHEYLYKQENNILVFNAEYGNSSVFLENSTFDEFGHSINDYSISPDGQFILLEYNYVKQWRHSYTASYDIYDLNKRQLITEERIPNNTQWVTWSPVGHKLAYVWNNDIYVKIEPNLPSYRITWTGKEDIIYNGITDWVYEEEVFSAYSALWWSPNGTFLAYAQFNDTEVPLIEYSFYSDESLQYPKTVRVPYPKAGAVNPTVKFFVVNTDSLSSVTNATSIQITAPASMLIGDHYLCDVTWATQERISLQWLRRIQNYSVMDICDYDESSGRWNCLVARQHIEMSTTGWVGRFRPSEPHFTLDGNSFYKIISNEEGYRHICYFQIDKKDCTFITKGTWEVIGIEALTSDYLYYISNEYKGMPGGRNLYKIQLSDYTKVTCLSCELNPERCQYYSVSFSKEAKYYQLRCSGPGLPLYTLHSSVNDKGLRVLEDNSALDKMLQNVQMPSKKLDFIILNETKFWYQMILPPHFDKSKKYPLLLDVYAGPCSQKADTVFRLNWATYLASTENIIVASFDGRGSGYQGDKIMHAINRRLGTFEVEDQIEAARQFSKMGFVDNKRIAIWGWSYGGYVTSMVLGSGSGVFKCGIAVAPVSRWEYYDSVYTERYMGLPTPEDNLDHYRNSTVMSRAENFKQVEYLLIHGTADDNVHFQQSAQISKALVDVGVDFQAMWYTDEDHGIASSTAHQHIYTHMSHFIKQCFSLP
ASSAY DETAILS: fluorimetric DPP-IV inhibition assay (H-Gly-Pro-AMC), dose-response
Assay type: biochemical
EXPERIMENTAL ENDPOINT: IC50 (µM)
// return numeric value only (unit: µM, not printed)

**Query** Report IC50, nothing else, for this compound: CCCCN(C)Cc1c(O)ccc2c(-c3cc4ccccc4oc3=O)cc(=O)oc12
**Result** 61.6

These measurements were taken from paper PMC3440348.
